# credit: patent US20250276075A1

molecular target: Axl (UniProt P30530); assay: ELISA, 1:9 dilution
Sequence (P30530 26-451 limits assumed): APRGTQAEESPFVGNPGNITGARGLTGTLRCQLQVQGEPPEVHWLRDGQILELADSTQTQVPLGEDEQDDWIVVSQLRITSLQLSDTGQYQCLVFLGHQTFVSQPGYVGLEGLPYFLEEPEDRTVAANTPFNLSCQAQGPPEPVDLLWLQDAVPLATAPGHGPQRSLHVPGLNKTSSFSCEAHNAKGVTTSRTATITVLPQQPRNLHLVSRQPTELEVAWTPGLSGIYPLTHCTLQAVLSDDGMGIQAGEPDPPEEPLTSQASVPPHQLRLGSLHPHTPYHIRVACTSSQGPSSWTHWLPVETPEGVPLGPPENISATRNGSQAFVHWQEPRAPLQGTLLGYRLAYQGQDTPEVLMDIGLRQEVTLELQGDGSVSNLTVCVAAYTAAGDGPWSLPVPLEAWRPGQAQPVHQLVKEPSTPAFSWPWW
QUANTITY_MEASURED: Affinity ELISA CPE mutant ratio (1:9, pH 6.0/7.4)

[
  {
    "BINDER": "LC-P095E (antibody, V domains shown) VH: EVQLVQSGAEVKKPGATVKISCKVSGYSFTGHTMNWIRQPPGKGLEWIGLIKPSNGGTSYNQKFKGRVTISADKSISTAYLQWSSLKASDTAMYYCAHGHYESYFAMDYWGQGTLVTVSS VL: DIQMTQSPSSLSASVGDRVTITCKASQDVSSAVAWYQQKPGQAPRLLIYWASTRHTGVPSRFSGSGSGTEFTLTISSLQPDDFATYYCQEHFSTELTFGQGTKVEIK",
    "ASSAY_VALUE": 7.51
  },
  {
    "BINDER": "HC-Y104C (antibody, V domains shown) VH: EVQLVQSGAEVKKPGATVKISCKVSGYSFTGHTMNWIRQPPGKGLEWIGLIKPSNGGTSYNQKFKGRVTISADKSISTAYLQWSSLKASDTAMYYCAHGHYESCFAMDYWGQGTLVTVSS VL: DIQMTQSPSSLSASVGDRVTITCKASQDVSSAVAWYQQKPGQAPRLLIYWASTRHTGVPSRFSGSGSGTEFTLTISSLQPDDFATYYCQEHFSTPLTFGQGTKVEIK",
    "ASSAY_VALUE": 1.74
  },
  {
    "BINDER": "HC-E102H (antibody, V domains shown) VH: EVQLVQSGAEVKKPGATVKISCKVSGYSFTGHTMNWIRQPPGKGLEWIGLIKPSNGGTSYNQKFKGRVTISADKSISTAYLQWSSLKASDTAMYYCAHGHYHSYFAMDYWGQGTLVTVSS VL: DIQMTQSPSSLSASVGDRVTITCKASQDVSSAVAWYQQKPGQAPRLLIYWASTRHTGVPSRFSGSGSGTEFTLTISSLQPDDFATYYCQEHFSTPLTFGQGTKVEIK",
    "ASSAY_VALUE": 2.31
  },
  {
    "BINDER": "LC-H091I (antibody, V domains shown) VH: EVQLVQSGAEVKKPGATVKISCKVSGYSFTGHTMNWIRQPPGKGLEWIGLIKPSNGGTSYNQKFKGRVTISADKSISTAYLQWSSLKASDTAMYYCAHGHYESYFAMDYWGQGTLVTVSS VL: DIQMTQSPSSLSASVGDRVTITCKASQDVSSAVAWYQQKPGQAPRLLIYWASTRHTGVPSRFSGSGSGTEFTLTISSLQPDDFATYYCQEIFSTPLTFGQGTKVEIK",
    "ASSAY_VALUE": 2.15
  },
  {
    "BINDER": "LC-H091S (antibody, V domains shown) VH: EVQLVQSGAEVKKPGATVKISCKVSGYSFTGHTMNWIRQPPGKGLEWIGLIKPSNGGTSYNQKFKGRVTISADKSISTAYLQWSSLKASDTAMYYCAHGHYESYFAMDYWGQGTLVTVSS VL: DIQMTQSPSSLSASVGDRVTITCKASQDVSSAVAWYQQKPGQAPRLLIYWASTRHTGVPSRFSGSGSGTEFTLTISSLQPDDFATYYCQESFSTPLTFGQGTKVEIK",
    "ASSAY_VALUE": 1.34
  }
]
